B1: KRT13 (parent)
chain: TPGIDLTRVLAEMREQYEAMAERN

# Variants of: B1
# test_summary: protein stability index of a GFP-peptide fusion (GPS, HEK-293T) (PSI 1-6); higher = more stable;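 note: lentivirally expressed fusions sorted by FACS into six bins by GFP to DsRed ratio, PSI derived from sequencing read proportions per bin multiplied by bin number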
# test_settings: c terminus: a fixed tail appended
observation_type: protein stability index
Number only, please.

Recorded protein stability index, per entry:
[[record]]
construct_sequence = "TPGIDLTRVLAEMREQYSAMAERN [E18S]"
observation_type = "protein stability index"
readout_number = 3.96

[[record]]
construct_sequence = "TPGIDLTRVLAEMREQYEAMAPRN [E22P]"
observation_type = "protein stability index"
readout_number = 3.98


# context switch: different variant, same protein stability index
Endpoint output: protein stability index of TPGIDLTRVWAEMREQYEAMAERN [L10W] . Value?
4.09
